These data points were gathered from patent US5583000A.

Target: HIV-2 protease (Human immunodeficiency virus type 2 subtype A)
Construct: the coding region of the 99-amino acid protease; made in house; host or cells: Saccharomyces cerevisiae strain AB110, plasmid pHIV2PR115
Sequence (P04584 514-612 limits assumed): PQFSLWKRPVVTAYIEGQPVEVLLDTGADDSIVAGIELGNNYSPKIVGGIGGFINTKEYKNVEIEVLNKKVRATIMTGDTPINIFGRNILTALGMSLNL
Assay: biochemical
Settings: read-out: HIV-2 Protease IC50 (μM) 1M NaCl; 1M NaCl
experimentalReadout: IC50
Record the result as a number with its unit.

**Q:** // query IC50 value for entry OC1(c2ccc(Cl)cc2)CCN(CCCC2(c3ccc(F)cc3)OCCO2)CC1
**A:** 238 µM

----------
Molecular target: HIV-1 protease (Human immunodeficiency virus type 1 group M subtype B, UniProt P03369)
Assay: biochemical
Details: HIV-1 Protease IC50 (μM) 1M NaCl, 1M NaCl
# strict inequality: IC50 < 800 µM yields satisfied, everything else yields not satisfied

**Q:** Please determine if OC1(C#CC2(c3ccccc3)CO2)CCN(Cc2ccccc2)CC1 (stereo not shown) is below 800 µM in terms of IC50.
**A:** satisfied

**Q:** # check: IC50 < 800 µM for O=C(CCCC1(O)CCC(O)(c2ccc(Cl)cc2)CC1)c1ccccc1 (stereo not shown)
**A:** not satisfied

**Q:** Is IC50 strictly under 800 µM for the entry C=CCCCC1(C(=O)c2ccc(N3CCC(O)(c4ccc(Cl)cc4)CC3)cc2)CC1 ?
**A:** satisfied

**Q:** # strict comparison: is reported IC50 < 800 µM? input = OC(CCCC1(O)CCN(Cc2ccccc2)CC1)c1ccccc1 (stereo not shown)
**A:** not satisfied

**Q:** Lab note: confirm whether the reported IC50 for this compound is below 800 µM, equality not counting. compound: OC(CC=CC1(O)CCN(Cc2ccccc2)CC1)c1ccccc1 (stereo not shown)
**A:** not satisfied

**Q:** State whether 800 µM exceeds IC50 recorded for O=C(CCCN1CCC(c2ccccc2)CC1)c1ccc(F)cc1 .
**A:** satisfied

**Q:** Strictly below 800 µM in IC50? OC1(C2(c3ccc(Cl)cc3)SCCCS2)CCN(CCCC2(c3ccc(F)cc3)SCCS2)CC1
**A:** satisfied

**Q:** Hi there! Is IC50 for OC1(CCCCc2ccccc2)CCC(O)(c2ccccc2)CC1 (stereo not shown) below 800 µM, do you know?
**A:** satisfied

**Q:** Report whether reported IC50 is lower than 800 µM (strictly) for OC1(CCCCc2ccccc2)CCC(O)(c2ccc(Cl)cc2)CC1 (stereo not shown)
**A:** not satisfied

**Q:** Decide: IC50 of O=C(c1ccc(N2CCC(O)(c3ccc(Cl)cc3)CC2)cc1)C1(CC#CCO)CC1 strictly below 800 µM?
**A:** satisfied

**Q:** Record O=C(c1ccc(N2CCC(O)(c3ccc(Cl)cc3)CC2)cc1)C1CC1 : is its IC50 strictly below 800 µM?
**A:** satisfied

**Q:** hey, is IC50 for OC(CC#CC1(O)CCN(Cc2ccccc2)CC1)c1ccccc1 (stereo not shown) lower than 800 µM or not?
**A:** satisfied

**Q:** Is IC50 of C=C(CCCC1(O)CCC(O)(c2ccc(Cl)cc2)CC1)c1ccccc1 (stereo not shown) strictly below 800 µM?
**A:** satisfied

----------
Give measured KI (inactivation) for each item. Keep answers brief.
Target: HIV-1 PR Q7K (Human immunodeficiency virus type 1 group M subtype B, UniProt P03369, Q497K)
Type: biochemical
Conditions: read-out: kinact (μM) HIV-1; inhibitor concentration resulting in half-maximal inactivation; pH 8.0, 25° C.
The answer is to be given in µM; state only the numeric part.

**Q:** If you can, please state the reported KI (inactivation) value of O=C(C#CCN1CCC(O)(c2ccc(Cl)cc2)CC1)c1ccc(-c2ccccc2)cc1 [UCSF231] .
**A:** 385

**Q:** For O=C(C#CCN1CCC(O)(c2ccc(Cl)cc2)CC1)c1cccc(-c2ccccc2)c1 [UCSF142] , what is its reported KI (inactivation)?
**A:** 10.7

**Q:** # query: KI (inactivation) of entry O=C(/C=C/CN1CCC(O)(c2ccc(Cl)cc2)CC1)c1ccc(F)cc1 [UCSF191]
**A:** 57.2

**Q:** Given the entry O=C(/C=C/C[N+]1([O-])CCC(O)(c2ccc(Cl)cc2)CC1)c1ccc(F)cc1 (centres unmarked) [UCSF115] , report its measured KI (inactivation).
**A:** 144

**Q:** Fill in: KI (inactivation) of OC1(c2ccc(Cl)cc2)CCN(CC#CC2(c3ccccc3)CO2)CC1 (centres unmarked) [UCSF84] is ___
**A:** 521

**Q:** GET /values?readout=KI (inactivation)&item= OC1(C#CC2(c3ccccc3)CO2)CCN(Cc2ccccc2)CC1 (centres unmarked) [UCSF70]
**A:** 407

**Q:** Please report the recorded KI (inactivation) for O=C(C#CCN1CCC(O)(c2ccc(Cl)cc2)CC1)c1ccccc1 [UCSF86] .
**A:** 62.4

**Q:** Using the record for O=C(C=C(CN1CCC(O)(c2ccc(Cl)cc2)CC1)SCCO)c1ccccc1 [UCSF178] , report its KI (inactivation).
**A:** 232
